Tested on: KYM-1 (Rhabdomyosarcoma)
Protocol: combination Emax (second highest fraction inhibited in the dose matrix, 72 h); higher = more inhibition; extreme values may be limits of the assay
Quantity Name: combination Emax
Keep the answer to the number alone.

Please review the following examples before continuing.
CCN(CCO)CCCOc1ccc2c(Nc3cc(CC(=O)Nc4cccc(F)c4)[nH]n3)ncnc2c1 [AZD2811] + O=C(c1cc(Cc2n[nH]c(=O)c3ccccc23)ccc1F)N1CCN(C(=O)C2CC2)CC1 [Olaparib] (first compound max 1 µM, 7x7, partner max 10 µM)	0.402
CC(=O)c1c(C)c2cnc(Nc3ccc(N4CCNCC4)cn3)nc2n(C2CCCC2)c1=O [Palbociclib] + Cc1c2c(nn1C)CSCc1cc(n(C)n1)CSc1cc(c3ccccc3c1)OCCCc1c(C(=O)O)n(C)c3c-2c(Cl)ccc13 [AZD5991] (first compound max 10 µM, 7x7, partner max 1 µM)	0.947

// moving on: another record for combination Emax
Per the record, CN(CCO)CC[C@H](CSc1ccccc1)Nc1ccc(S(=O)(=O)NC(=O)c2ccc(N3CCC([C@@H](O)c4ccccc4-c4ccc(Cl)cc4)CC3)cc2)cc1S(=O)(=O)C(F)(F)F [AZD4320] + C[C@@H](Nc1cc(F)cc(F)c1)c1cc(C(=O)N(C)C)cc2c(=O)cc(N3CCOCC3)oc12 [AZD8186] (first compound max 1 µM, 7x7, partner max 3 µM) has combination Emax of 0.197
